# maps each entry to its log10 of minimal effective concentration
- Test system: Arabidopsis seed germination and hypocotyl growth
- Procedure Text: Arabidopsis seed germination and hypocotyl growth
- Format: in vivo
- Condition Info: Arabidopsis thaliana; Germination Effects III; tested at 1, 5, 10, 25 and 50 uM; lowest concentration inhibiting hypocotyl growth; — = none; read-out: Growth Inhibition
Remember, log10 of minimal effective concentration, in µM.

The reported log10 of minimal effective concentration of the compound `CC(C)COC(=O)NS(=O)(=O)Cc1ccc(C#N)cc1` was 1.70

Item: CC1CCC(C(=O)NS(=O)(=O)Cc2ccc(C#N)cc2)(c2ccc(F)cc2)CC1 (centres unmarked) | log10 of minimal effective concentration: 1.00

Quick note, log10 of minimal effective concentration for `N#Cc1ccc(CS(=O)(=O)NC(=O)C2(c3ccsc3)CCCCC2)cc1` landed at 0.40

Entry under test: `N#Cc1ccc(CS(=O)(=O)NC(=O)C2(c3cccs3)CCCCC2)cc1` . Its log10 of minimal effective concentration was 0.70
